Values from patent US4091115A

Would you mind telling me the reported minimal effective dose of each entry?
# Test system: effects of 5-HTP
# Experiment Summary: Potentiation of effects of 5-HTP in mice
# Format: in vivo
# Settings: Mus musculus, 1 h; i.p. one hour before 5-HTP 200 mg/kg i.p.; trembling observed for an hour; read-out: MAD (minimal active dose), potentiation of 5-HTP effects
Where a name gives a salt, the structure may show the parent alone.
The answer is to be given in mg/kg; state only the numeric part.

Which minimal effective dose is listed for CNC1C=Cc2cccc(Cl)c2CC1 (centres unmarked) [Example 11, hydrochloride] ?
20

Do the same for CNC1CCc2ccccc2C(c2ccccc2)C1 (centres unmarked) [Example 9, hydrochloride] please
20

Would you kindly repeat that for CNC1C=Cc2ccccc2CC1 (centres unmarked) [Example 6, hydrochloride] ?
5

Next entry: CN(C)C1CCc2ccccc2C(c2ccccc2)C1 (single isomer, unassigned) [Example 5, hydrochloride]
10

Same lookup for C=CCNC1C=Cc2ccccc2CC1 (centres unmarked) [Example 14, hydrochloride] , please.
50
